Where do the numbers come from? From PubChem BioAssay (NCATS).

System: CP237
Experiment: qHTS profiling for inhibitors of Plasmodium falciparum proliferation (AID 504749); also: nearly all actives have a fitted effect of over 60% in size
Conditions: P. falciparum in erythrocytes, SYBR Green DNA, 72 h; series mostly up to 28.7 µM
Records with an inconclusive call do not appear. Calls of active or inactive are those of the source. Calls follow the shape of the dose curve; as a rule, active = well fitted inhibition curve with a large enough effect; inconclusive = small, poorly fitted or top-dose-only effect; inactive = flat fitted curve, though single readings scatter.
Respond using exactly one of the listed classes: class 1 = active, class 0 = inactive

Exercise: Check the results log: what was the call for Cc1nc2c([nH]1)c(=O)n(C)c(=O)n2Cc1ccco1 ?
Key: class 0

Exercise: Call for entry CCN(CC)CCCN(c1ccccc1)C1Cc2ccccc2C1 :
Key: class 1

Exercise: What outcome does the record of this test show for Cc1scc2c1N(C(=O)CN1CCN(C)CC1)c1ccccc1NC2=O ?
Key: class 0

Exercise: For this molecule, state the assay outcome: Cc1ccc(=O)n(-c2ccccc2)c1
Key: class 0

Exercise: Hello, I am checking results. What call was entered for C[n+]1cc2c3c(ccc2c2ccc4cc5c(cc4c21)OCO5)OCO3 ?
Key: class 0

Exercise: Would you mind telling me which call this test gave CCN(CC)CCNC(=O)c1ccc(NC(C)=O)cc1 ?
Key: class 0

Exercise: Hey, what did the test say about CC[N+](C)(C)c1cccc(O)c1 ?
Key: class 0

Exercise: Hi team, can someone confirm the assay call for O=C(O)CN(CCOCCOCCN(CC(=O)O)CC(=O)O)CC(=O)O ?
Key: class 0

Exercise: // outcome(item) with item = C[N+](C)(C)CCCCCCCCCC[N+](C)(C)C
Key: class 1

Exercise: Would you mind telling me which call this test gave NC/C=C/C(=O)O ?
Key: class 0

Exercise: How did this test come out for NS(=O)(=O)c1cc2c(cc1Cl)NC(C1CC3C=CC1C3)NS2(=O)=O (configuration not stated) ?
Key: class 0

Exercise: So what was the verdict on CCN(CC)CCNC(=O)c1cc(S(C)(=O)=O)ccc1OC in this test?
Key: class 0

Exercise: I'd appreciate the recorded outcome for C[N+](C)(C)CCOC(N)=O from this test.
Key: class 0

Exercise: How was O=C(O)CP(=O)(O)O classified in this test?
Key: class 0

Exercise: Returns: the outcome recorded for CC(=O)Oc1cc(C(C)C)c(OCCN(C)C)cc1C in this assay.
Key: class 0

Exercise: Which outcome was entered for the molecule CN(C)CCN(Cc1cccs1)c1ccccn1 in this test?
Key: class 1

Exercise: How was NC(Cc1ccc(Cl)cc1)C(=O)O (configuration not stated) classified in this test?
Key: class 0

Exercise: Would you mind telling me which call this test gave CCCC(C(=O)OCCN(CC)CC)(c1ccccc1)c1ccccc1 ?
Key: class 1

Exercise: # lookup: test call for O=C(O)CN(CCN(CC(=O)O)CC(=O)O)CCN(CC(=O)O)CC(=O)O
Key: class 0

Exercise: Hi team, can someone confirm the assay call for CCOC(=O)C1=C(C)NC(C)=C(C(=O)OC)C1c1cccc([N+](=O)[O-])c1 (configuration not stated) ?
Key: class 1

Exercise: Outcome? CCn1ccnc1CC1COc2ccccc2O1 (configuration not stated)
Key: class 0

Exercise: Query: recorded result category for CN(C)C(=O)Oc1ccc[n+](C)c1 in this test
Key: class 0

Exercise: For CC(C)NNC(=O)c1ccncc1 , which call appears in the assay record?
Key: class 0

Exercise: For CCCOc1ccccc1-c1nc2n[nH]nc2c(=O)[nH]1 , which call appears in the assay record?
Key: class 0

Exercise: Hey, what did the test say about CN=C(NC#N)NCCSCc1nc[nH]c1C ?
Key: class 0

Exercise: Query: recorded result category for CCN1CCC[C@H]1CNC(=O)c1c(O)c(Cl)cc(Cl)c1OC in this test
Key: class 0

Exercise: What classification did COCC(=O)O[C@]1(CCN(C)CCCc2nc3ccccc3[nH]2)CCc2cc(F)ccc2[C@@H]1C(C)C end up with in this test?
Key: class 1
